- target: NK2 (Homo sapiens, UniProt P21452)
- Sequence (P21452 whole entry): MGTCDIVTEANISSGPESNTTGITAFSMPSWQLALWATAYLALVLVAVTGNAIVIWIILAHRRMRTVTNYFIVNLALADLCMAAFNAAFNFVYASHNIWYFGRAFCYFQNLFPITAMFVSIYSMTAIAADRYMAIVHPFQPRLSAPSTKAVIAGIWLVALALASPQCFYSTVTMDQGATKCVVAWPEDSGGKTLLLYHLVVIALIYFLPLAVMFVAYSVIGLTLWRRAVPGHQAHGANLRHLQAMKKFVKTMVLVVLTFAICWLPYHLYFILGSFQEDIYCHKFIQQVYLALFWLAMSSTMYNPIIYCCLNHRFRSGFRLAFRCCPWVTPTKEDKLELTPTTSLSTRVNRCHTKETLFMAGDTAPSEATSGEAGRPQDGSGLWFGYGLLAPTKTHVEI
- assay.text: Signal transduction (ST), intracellular Ca++ (FLIPR), NK2
- Type: cell-based
- stated.conditions: read-out: pIC50 NK2 (converted)
measured.property: IC50 (nM)

Solved cases (2 shown):
O=C(c1cc(C(F)(F)F)cc(C(F)(F)F)c1)N1CC[C@H](N2CCN(C3CCCN(S(=O)(=O)c4ccc(-c5cnco5)s4)C3)CC2)C[C@H]1Cc1ccccc1 (stereo partly shown) ... 2000
O=C(c1cc(C(F)(F)F)cc(C(F)(F)F)c1)N1CC[C@H](N2CCN(C3CCCN(S(=O)(=O)c4ccccc4C(F)(F)F)C3)CC2)C[C@H]1Cc1ccccc1 (stereo partly shown) ... 6310

a. COc1ccc(S(=O)(=O)N2CCCC(N3CCN([C@H]4CCN(C(=O)c5cc(C(F)(F)F)cc(C(F)(F)F)c5)[C@H](Cc5ccccc5)C4)CC3)C2)s1 (stereo partly shown)
b. O=C(c1cc(C(F)(F)F)cc(C(F)(F)F)c1)N1CC[C@H](N2CCN(C3CCCN(S(=O)(=O)c4c(Cl)nc5sccn45)C3)CC2)C[C@H]1Cc1ccccc1 (stereo partly shown)
c. O=C(c1cc(C(F)(F)F)cc(C(F)(F)F)c1)N1CC[C@H](N2CCN(C3CCCN(C(CO)c4ccsc4)C3)CC2)C[C@H]1Cc1ccccc1 (stereo partly shown)
d. O=C(c1cc(C(F)(F)F)cc(C(F)(F)F)c1)N1CC[C@H](N2CCN(C3CCCN(S(=O)(=O)c4ccc(COCc5ccccc5)s4)C3)CC2)C[C@H]1Cc1ccccc1 (stereo partly shown)
List by increasing IC50. Please write the labels in the order that was asked for.
b, d, c, a

I. O=C(c1cc(C(F)(F)F)cc(C(F)(F)F)c1)N1CCC(N2CCN(C3CCCN(S(=O)(=O)c4cccs4)C3)CC2)CC1Cc1ccccc1 (stereo not shown)
II. Cc1noc(C)c1S(=O)(=O)N1CCCC(N2CCN([C@H]3CCN(C(=O)c4cc(C(F)(F)F)cc(C(F)(F)F)c4)[C@H](Cc4ccccc4)C3)CC2)C1 (stereo partly shown)
Smaller IC50 value? Options are I and II Select an item and report its label.
II
(II: 631 nM, I: 3160 nM)

a. O=C(c1ccccc1Cl)N1CCCC(N2CCN([C@H]3CCN(C(=O)c4cc(C(F)(F)F)cc(C(F)(F)F)c4)[C@H](Cc4ccccc4)C3)CC2)C1 (stereo partly shown)
b. O=C(c1cccs1)N1CCCC(N2CCN([C@H]3CCN(C(=O)c4cc(C(F)(F)F)cc(C(F)(F)F)c4)[C@H](Cc4ccccc4)C3)CC2)C1 (stereo partly shown)
Parameter check: reported IC50 is higher for which label, a or b ? Select an item and report its label.
a
